# LEUKOCYTE COUNT per record follows
species: Rattus norvegicus; assay: DrugMatrix - Regimen: Daily Repeat; type: toxicity, organism-based, Sprague-Dawley; set-up: regimen Daily Repeat, gender Male, age 6-8 weeks; details: in vivo, po, 0 mg/kg, 120 h, tissue Blood, route oral GAVAGE, dose level Control, time 5 day, […]
Numeric only. Scale: x10E3/uL

input: For the compound COC(=O)Nc1nc2ccc(C(=O)c3ccccc3)cc2[nH]1 , what LEUKOCYTE COUNT is on record?
output: 9.35

input: Param item: CCOC(=O)C1=C(C)NC(C)=C(C(=O)OCC)C1c1ccccc1/C=C/C(=O)OC(C)(C)C
output: 12.2

input: Param item: O=C(O)COC(=O)Cc1ccccc1Nc1c(Cl)cccc1Cl
output: 9.35

input: Param item: CS(=O)(=O)c1ccc(C2=C(c3ccccc3)C(=O)OC2)cc1
output: 11.63

input: Param item: O=C(Nc1ccc(Cl)c(Cl)c1)c1cc(Cl)cc(Cl)c1O [3,3',4',5-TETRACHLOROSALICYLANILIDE]
output: 14.02

input: Param item: CCC(C)(C)C(=O)O[C@H]1C[C@@H](C)C=C2C=C[C@H](C)[C@H](CC[C@@H]3C[C@@H](O)CC(=O)O3)[C@H]21
output: 8.82

input: Param item: CO[C@H]1O[C@@H]2O[C@@]3(C)CC[C@H]4[C@H](C)CC[C@@H]([C@H]1C)[C@@]24OO3
output: 17.02

input: Param item: CC#C[C@]1(O)CC[C@H]2[C@@H]3CCC4=CC(=O)CCC4=C3[C@@H](c3ccc(N(C)C)cc3)C[C@@]21C
output: 8.82

input: Param item: c1ccc2c(c1)Nc1ccccc1S2
output: 11.63

input: Param item: Cc1cccc(C)c1NC(=O)C(C)N (configuration not stated) [TOCAINIDE]
output: 9.93

input: Param item: Oc1ncnc2[nH]ncc12
output: 18.73

input: Param item: CC(C)(c1ccc(O)cc1)c1ccc(O)cc1
output: 10.77
